system.name: T1, hPD-1 Avi-Tag Biotin (AcroBiosystems PD1-H82E4) (human, UniProt Q15116 25-167, biotin on Avi-Tag)
T1 construct: bought; also called human PD-1
assay.comment: SPR, Ab captured, PD-1 analyte
// reported Kd for each item listed
Provide only the numeric value, understood in nM.

| binder | endpoint | value.units | value.reported |
| --- | --- | --- | --- |
| z1-XVT458 (antibody, human IgG1, kappa, V domains shown, hIgG1; also called GH + V067A) VH: QVQLVQSGAEVKKPGASVKVSCKASGYTFTNFYIHWVRQAPGQGLEWMGSIYPNYGDTAYNQKFKDRATMTTDTSTSTAYMELRSLRSDDTAVYYCARGYSYAMDYWGQGTTVTVSS VL: DIQMTQSPSSVSASVGDRVTITCSASQGISGDLNWYQQKPGKAPKLLIYHTSSLHSGVPSRFSGSGSGTDFTLTISSLQPEDFATYYCQYYSKDLLTFGGGTKLEIKR | Kd | nM | 15.9 |
| z2-XVT458 (antibody, IgG1, V domains shown, full hIgG1; also called XVT458-z2; GH + T071V) VH: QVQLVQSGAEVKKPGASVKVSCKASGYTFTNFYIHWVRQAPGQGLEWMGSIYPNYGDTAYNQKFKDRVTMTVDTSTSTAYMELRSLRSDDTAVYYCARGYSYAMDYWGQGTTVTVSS VL: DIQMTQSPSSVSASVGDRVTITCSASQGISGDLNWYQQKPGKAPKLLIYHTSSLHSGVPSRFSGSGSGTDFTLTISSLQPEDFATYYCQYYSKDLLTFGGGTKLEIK | Kd | nM | 14 |

Request: Returns the measured Kd for the input binder. Input: z3-XVT458 (antibody, human IgG1, kappa, V domains shown, hIgG1; numbering as for z1; also called GH + T073K) VH: QVQLVQSGAEVKKPGASVKVSCKASGYTFTNFYIHWVRQAPGQGLEWMGSIYPNYGDTAYNQKFKDRVTMTTDKSTSTAYMELRSLRSDDTAVYYCARGYSYAMDYWGQGTTVTVSS VL: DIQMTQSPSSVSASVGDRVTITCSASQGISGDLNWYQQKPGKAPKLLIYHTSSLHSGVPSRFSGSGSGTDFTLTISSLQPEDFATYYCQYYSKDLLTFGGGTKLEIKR
Result: 16.2

Numbers sourced from patent US20260207767A1.
